assayNotes: in vitro
recordedConditions: dog
propertyName: CC50 at 48 h (µM)
Lab book: enter the figure in µM, no units written.

Prompt line: Any idea what its CC50 at 48 h is? The molecule is CCC(CC)O[C@@H]1C=C(C(=O)O)C[C@H](N)[C@H]1NC(C)=O [OST-car, Oseltamivir carboxylate]
Response line: 2130
